Readings of protein stability index for the listed variants
B1: EPB41L3 (parent)
chain: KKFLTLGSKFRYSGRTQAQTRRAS

variants of: B1; test: protein stability index of a GFP-peptide fusion (GPS, HEK-293T) (PSI 1-6); higher = more stable; conditions: c terminus: a fixed tail appended;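 also: lentivirally expressed fusions sorted by FACS into six bins by GFP to DsRed ratio, PSI derived from sequencing read proportions per bin multiplied by bin number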
Write the value as a bare number.

// known answers, use as guide
Mutation Id: A18H
protein stability index: 2.49

Mutation Id: K2Y
protein stability index: 2.22

Mutation Id: R15M
protein stability index: 2.49

Mutation Id: Q19F
protein stability index: 2.1

Mutation Id: Q19I
protein stability index: 2.37

Mutation Id: A18V
protein stability index: 2.84

Mutation Id: A23T
protein stability index: 2.92

Mutation Id: F3Q
protein stability index: 2.95

Problem: So what does the record say about protein stability index for K1D ?
Result: 2.43

Problem: Looking for the measured protein stability index of S8A , can you help?
Result: 3.02

Problem: What does the record list as protein stability index for Q17D ?
Result: 2.95

Problem: Field request: protein stability index | item: Q19T
Result: 2.61

Problem: // protein stability index lookup, key: K2F
Result: 4.04

Problem: Recorded protein stability index for F3R , please?
Result: 4.15

Problem: Entry A23E : reported protein stability index = ?
Result: 3.21

Problem: Returns the measured protein stability index for the input variant. Input: T20K
Result: 3.2

Problem: Can you share its protein stability index? I mean this variant: R11H
Result: 3.7

Problem: Query: protein stability index; subject: F10V
Result: 2.92
